test system: HL-60(TB) leukemia; test: NCI-60 one-dose screen, 48 h; settings: 10 µM unless noted
About 83,000 compounds went through this panel and 20% of them were active in at least one assay; those are over-represented in the sample as a whole. Activity calls are given as the source filed them. How the source made its calls: active means growth percent below 10; inactive means the rest.
Just give me one of these, please: active, inactive

// below: answered compounds
CCc1ccccc1-n1[nH]c(C)c(C=N)c1=O	inactive
CC(=O)Oc1c(Cl)cccc1-c1ccccc1	inactive
COC(=O)Nc1ccc2ccc3c(NC(=O)OC)ccc4ccc1c2c43 (tested in a mixture with another compound)	inactive
Cc1cccnc1NC(=S)Nc1ncccc1C	inactive
O=C1Nc2ccccc2/C1=C/C(=N/c1nnc(-c2ccccc2)s1)c1ccccc1	active

State the result this test recorded for "O=S(=O)(F)c1ncnc2nc[nH]c12" .
inactive

State the result this test recorded for "CC[C@@H]1OC(=O)[C@H](C)[C@@H](O[C@H]2C[C@@](C)(OC)[C@@H](O)[C@H](C)O2)[C@H](C)[C@@H](O[C@@H]2O[C@H](C)C[C@H](N(C)C)[C@H]2O)[C@](C)(O)C[C@@H](C)[C@@H]2N[C@@H](COCCOC)O[C@H]([C@H]2C)[C@]1(C)O" .
inactive

State the result this test recorded for "Cn1cc(-c2nc(-c3cn(C)c4ncccc34)cs2)c2cc(F)ccc21" .
inactive

State the result this test recorded for "COc1cc(-c2c(-c3ccccc3)c[nH]c2C(=O)NCCCO)c(OC)c2c1OCO2" .
inactive

State the result this test recorded for "Cc1ccc2c(c1)c(-c1nc(-c3c[nH]c4ncccc34)cs1)cn2C" .
inactive
